In this section we review reported IC50 values for a set of compounds.
Target: G12C-mutant human KRAS (amino acid residues 1-188) (Homo sapiens, UniProt P01116, G12C)
Construct: G12D or G12C-mutant human KRAS (amino acid residues 1-188) with FLAG tag; made in house; host or cells: E. coli
Experiment: KRAS Binding Disruption Assay (AlphaScreen; biotinylated KRpep-2d analogue or RAF1-RBD), G12C
Details: geometric mean, read-out: KRAS GMean IC50 (uM) MUTATION: G12C

IC50 recorded for this compound, CN1CCC[C@H]1COc1nc(N2C[C@H]3CC[C@@H](C2)N3)c2ccc(-c3cccc4ccccc34)c(F)c2n1 , is 100 to 1000 µM

IC50 recorded for this compound, CN1CCC[C@H]1COc1nc(N2C[C@H]3CC[C@@H](C2)N3)c2cc(F)c(-c3c[nH]c4ncccc34)c(F)c2n1 , is 100 to 1000 µM

IC50 recorded for this compound, Oc1cc(-c2ccc3c(N4C[C@H]5CC[C@@H](C4)N5)nc(CCNc4ncccn4)nc3c2F)c2ccccc2c1 , is 10 to 100 µM

IC50 recorded for this compound, Fc1cc(F)c2c(-c3c(F)cc4c(N5C[C@H]6CC[C@@H](C5)N6)nc(OCC56CCCN5CCC6)nc4c3F)c[nH]c2c1 , is 0.0001 to 10 µM

IC50 recorded for this compound, CC(C)(O)C1CN(c2nc(N3C[C@H]4CC[C@@H](C3)N4)c3ccc(-c4cc(O)cc5ccccc45)c(F)c3n2)C1 , is 100 to 1000 µM

IC50 recorded for this compound, CN(C)C1CCN(c2nc(N3C[C@H]4CC[C@@H](C3)N4)c3ccc(-c4cc(O)cc5ccccc45)c(F)c3n2)C1 (stereo partly shown) , is 10 to 100 µM

IC50 recorded for this compound, O=C1NC(=O)C(CC(=O)N2[C@@H]3CC[C@H]2CN(c2nc(OCC45CCCN4CCC5)nc4c(F)c(-c5cc(O)cc6ccccc56)ccc24)C3)N1 (stereo partly shown) , is 0.0001 to 10 µM

IC50 recorded for this compound, O=C(N[C@H]1CC[C@H](O)C1)N1[C@@H]2CC[C@H]1CN(c1nc(OCC34CCCN3CCC4)nc3cc(-c4cc(O)cc5ccccc45)ccc13)C2 , is 0.0001 to 10 µM

IC50 recorded for this compound, CCCNS(=O)(=O)N1[C@@H]2CC[C@H]1CN(c1nc(OCC34CCCN3CCC4)nc3cc(-c4cc(O)cc5ccccc45)ccc13)C2 , is 0.0001 to 10 µM

IC50 recorded for this compound, COc1ccc(CNCCc2nc(N3C[C@H]4CC[C@@H](C3)N4)c3ccc(-c4cc(O)cc5ccccc45)c(F)c3n2)cc1 , is 10 to 100 µM

Further cases:
IC50 recorded for this compound, O=C1NC(=O)[C@H](CC(=O)N2[C@@H]3CC[C@H]2CN(c2nc(OCC45CCCN4CCC5)nc4c(F)c(-c5cc(O)cc6ccccc56)ccc24)C3)N1 , is 0.0001 to 10 µM

IC50 recorded for this compound, CN1CCC[C@H]1COc1nc(N2C[C@H]3CC[C@@H](C2)N3)c2cc(F)c(-c3c[nH]c4cc(Cl)ccc34)c(F)c2n1 , is 100 to 1000 µM

IC50 recorded for this compound, CS(=O)(=O)NCCc1nc(N2C[C@H]3CC[C@@H](C2)N3)c2ccc(-c3cc(O)cc4ccccc34)c(F)c2n1 , is 10 to 100 µM

###

Target: G12D-mutant human KRAS (amino acid residues 1-188) (Homo sapiens, UniProt P01116, G12D)
Construct: G12D or G12C-mutant human KRAS (amino acid residues 1-188) with FLAG tag; made in house; host or cells: E. coli
Test: KRAS Binding Disruption Assay (AlphaScreen; biotinylated KRpep-2d analogue or RAF1-RBD), G12D
Conditions: KRAS G12D; geometric mean; read-out: KRAS GMean IC50 (uM) MUTATION: G12D
In this section we review reported IC50 values for a set of molecules.

Reference set, count: 3
IC50 recorded for this molecule, CN1CCC[C@H]1COc1nc(N2C[C@H]3CC[C@@H](C2)N3CC(=O)N2CCC(N)CC2)c2ccc(-c3cc(O)cc4ccccc34)c(F)c2n1 [P-0427] , is 10 to 100 µM

IC50 recorded for this molecule, CCCNS(=O)(=O)N1[C@@H]2CC[C@H]1CN(c1nc(OCC34CCCN3CCC4)nc3cc(-c4cc(O)cc5ccccc45)ccc13)C2 [P-0096] , is 0.0001 to 10 µM

IC50 recorded for this molecule, CC(C)(C)OC(=O)NCCN1[C@@H]2CC[C@H]1CN(c1nc(OCC34CCCN3CCC4)nc3c(F)c(-c4cc(O)cc5ccccc45)ccc13)C2 [P-0551] , is 0.0001 to 10 µM

Further cases:
IC50 recorded for this molecule, CN1CCC[C@H]1COc1nc(N2C[C@H]3CC[C@@H](C2)N3S(=O)(=O)N[C@@H]2CCNC2)c2ccc(-c3cc(O)cc4ccccc34)c(F)c2n1 [P-0405] , is 0.0001 to 10 µM

IC50 recorded for this molecule, O=C1CC(CC(=O)N2[C@@H]3CC[C@H]2CN(c2nc(OCC45CCCN4CCC5)nc4c(F)c(-c5cc(O)cc6ccccc56)ccc24)C3)C(=O)N1 (stereo partly drawn) [P-0356] , is 0.0001 to 10 µM

IC50 recorded for this molecule, CN1CCC[C@H]1COc1nc(N2CC3COCC(C2)N3)c2cc(Cl)c(-c3cc(O)cc4cccc(Cl)c34)c(F)c2n1 [P-0365] , is 0.0001 to 10 µM

###

Biological target: G12V-mutant human KRAS (amino acid residues 1-188) (Homo sapiens, UniProt P01116, G12V)
Construct: G12V-mutant human KRAS (amino acid residues 1-188) with FLAG tag was purified from E. coli; made in house; host or cells: E. coli
Assay: KRAS Binding Competition Assay (AlphaScreen; biotinylated KRpep-2d analogue), G12V
Details: geometric mean, read-out: KRAS GMean IC50 (uM) MUTATION: G12V
Test readout: IC50

Reference set, count: 5
IC50 recorded for this compound, Oc1cccc(F)c1-c1c(Cl)cc2c(N3C[C@H]4CC[C@@H](C3)N4)nc(OCC34CCCN3CCC4)nc2c1F , is 10 to 100 µM

IC50 recorded for this compound, CN1CCC[C@H]1COc1nc(N2C[C@H]3CC[C@@H](C2)N3S(=O)(=O)N[C@@H]2CCNC2)c2ccc(-c3cc(O)cc4ccccc34)c(F)c2n1 , is 10 to 100 µM

IC50 recorded for this compound, O=C1NC(=O)C(CC(=O)N2[C@@H]3CC[C@H]2CN(c2nc(OCC45CCCN4CCC5)nc4c(F)c(-c5cc(O)cc6ccccc56)ccc24)C3)N1 (stereo partly shown) , is 0.0001 to 10 µM

IC50 recorded for this compound, CN1CCC[C@H]1COc1nc(N2C[C@H]3CC[C@@H](C2)N3)c2cc(Cl)c(-c3cc(O)cc4ccccc34)cc2n1 , is 10 to 100 µM

IC50 recorded for this compound, O=C(O)CNC(=O)N1[C@@H]2CC[C@H]1CN(c1nc(OCC34CCCN3CCC4)nc3cc(-c4cc(O)cc5ccccc45)ccc13)C2 , is 0.0001 to 10 µM

Further cases:
IC50 recorded for this compound, CN1CCC[C@H]1COc1nc(N2[C@@H]3CC[C@H]2CN(C(=O)NC2COCC2(C)C)C3)c2ccc(-c3cc(O)cc4ccccc34)cc2n1 (stereo partly shown) , is 10 to 100 µM

IC50 recorded for this compound, Oc1cc(-c2ccc3c(N4[C@@H]5CC[C@H]4CNC5)nc(CCc4cccnc4)nc3c2)c2ccccc2c1 , is 0.0001 to 10 µM

###

Target: G12V-mutant human KRAS (amino acid residues 1-188) (Homo sapiens, UniProt P01116, G12V)
Construct: G12V-mutant human KRAS (amino acid residues 1-188) with FLAG tag was purified from E. coli; made in house; host or cells: E. coli
Assay: KRAS Binding Competition Assay (AlphaScreen; biotinylated KRpep-2d analogue), G12V
Conditions: geometric mean, read-out: KRAS GMean IC50 (uM) MUTATION: G12V
In this section we review reported IC50 values for a set of molecules.

// returns IC50 for CN1CCCC1COc1nc(N2C[C@H]3CC[C@@H](C2)N3C(=O)NC2COC(C)(C)C2)c2ccc(-c3cc(O)cc4ccccc34)c(F)c2n1 (stereo partly drawn) with G12V-mutant human KRAS (amino acid residues 1-188) (Homo sapiens, UniProt P01116, G12V); value = 0.0001 to 10 µM

// returns IC50 for CN1CCC[C@H]1COc1nc(N2C[C@H]3CC[C@@H](C2)N3)c2ccc(-c3c(F)ccc4[nH]ccc34)cc2n1 with G12V-mutant human KRAS (amino acid residues 1-188) (Homo sapiens, UniProt P01116, G12V); value = 100 to 1000 µM

// returns IC50 for CN1CCC[C@H]1COc1nc(N2C[C@H]3CC[C@@H](C2)N3c2cnccn2)c2ccc(-c3cc(O)cc4ccccc34)c(F)c2n1 with G12V-mutant human KRAS (amino acid residues 1-188) (Homo sapiens, UniProt P01116, G12V); value = 100 to 1000 µM
